Data credit: patent US20230151091A1

Tgt: T1, mouse MuSK (mouse, UniProt Q61006 22-494, limits assumed)
T1 construct: Coated on ELISA plates or on the Biacore chip; also called full length mouse MuSK; mouse MuSK (in house produced in HEK293 cells)
T1 sequence (looked up): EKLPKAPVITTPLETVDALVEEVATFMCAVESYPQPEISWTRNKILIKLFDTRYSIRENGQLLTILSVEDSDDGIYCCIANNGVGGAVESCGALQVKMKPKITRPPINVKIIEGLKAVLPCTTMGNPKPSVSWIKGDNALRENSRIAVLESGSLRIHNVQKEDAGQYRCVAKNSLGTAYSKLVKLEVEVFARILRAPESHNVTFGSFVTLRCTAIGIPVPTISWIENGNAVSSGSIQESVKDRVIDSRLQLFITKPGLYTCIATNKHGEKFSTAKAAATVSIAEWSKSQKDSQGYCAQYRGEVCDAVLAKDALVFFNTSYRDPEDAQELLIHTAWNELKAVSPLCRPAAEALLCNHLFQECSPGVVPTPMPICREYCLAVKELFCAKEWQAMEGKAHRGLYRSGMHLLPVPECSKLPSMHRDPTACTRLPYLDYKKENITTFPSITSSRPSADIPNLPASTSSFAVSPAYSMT
Measurement description: Biacore, MuSK on chip, association pH 7.4, dissociation pH 5.5
Experimental: For affinity determination, a CMS chip was coated with cynomolgus monkey, rat and mouse MuSK (200RU) and 66.7 nM of antibody was applied and kinetic parameters calculated (Table 8). […]
Experimental readout: kon (M⁻¹ s⁻¹)
Output spec: scalar in M⁻¹ s⁻¹, unitless text.

Illustrative cases are given below, each with its answer.
Binder	Result number
3B2g1m2 (antibody, human IgG1, V domains shown, human IgG1-LALA backbone; produced in HEK293 cells) VH: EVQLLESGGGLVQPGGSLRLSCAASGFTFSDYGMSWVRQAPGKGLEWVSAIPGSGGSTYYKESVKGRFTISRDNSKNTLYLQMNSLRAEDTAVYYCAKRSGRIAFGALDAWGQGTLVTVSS VL: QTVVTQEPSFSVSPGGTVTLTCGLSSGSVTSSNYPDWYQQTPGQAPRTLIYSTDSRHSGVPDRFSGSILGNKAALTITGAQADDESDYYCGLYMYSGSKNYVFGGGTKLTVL	70000
3B2 (antibody, V domains shown, human IgG1 with the LALA mutations (L234A, L235A); produced in HEK293 cells; also called 3B2 mAb; parental 3B2 Ab) VH: ELQLVESGGGLVQPGGSLRLSCAASGFTFDDYGMSWVRQAPGKGLEWVSAIPWNGGSTYYKESVKGRFTISRDNAKKTLYLQMNSLKSEDTAVYYCAKRSGRIAFGALDAWGQGTLVTVSS VL: QAVVTQEPSLSVSPGGTVTLTCGLSSGSVTSSNYPDWYQQTPGQAPRGLIYSTDSRHSGVPSRFSGSISGNKAALTITGAQSEDEADYYCGLYMYSGSKNYVFGGGTKLTVL	1.05e+06

Now take the following binder into account.
Tell me its kon given 3B2g2m1 (antibody, human IgG1, V domains shown, human IgG1-LALA backbone; produced in HEK293 cells; also called MuSK agonist antibody 3B2g2m1; MuSK-mAb 3B2g2m1) VH: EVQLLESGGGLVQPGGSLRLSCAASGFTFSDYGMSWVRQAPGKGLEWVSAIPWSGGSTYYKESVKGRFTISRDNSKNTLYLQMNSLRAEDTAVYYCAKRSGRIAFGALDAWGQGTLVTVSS VL: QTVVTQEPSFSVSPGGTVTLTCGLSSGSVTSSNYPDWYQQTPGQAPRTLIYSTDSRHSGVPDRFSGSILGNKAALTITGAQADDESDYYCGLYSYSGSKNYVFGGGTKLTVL as the entry.
1.18e+06
